Origin of measurements: patent US20150098955A1

# testedOn: T1, Recombinant human CD40L (Human MegaCD40L; Axxora) (human, UniProt P29965 47-261, biotinylated with EZ-Link sulfo-NHS-biotin where used in the plate binding assay)
# T1 construct: extracellular domain; Bought construct (Axxora ALX522110): two trimeric CD40 ligands linked via the ACRP30 collagen domain; also called biotinylated Human MegaCD40L; Mega human CD40L; not shown: FLAG tag and collagen domain of ACRP30/adiponectin that links two CD40L trimers
# T1 sequence (looked up): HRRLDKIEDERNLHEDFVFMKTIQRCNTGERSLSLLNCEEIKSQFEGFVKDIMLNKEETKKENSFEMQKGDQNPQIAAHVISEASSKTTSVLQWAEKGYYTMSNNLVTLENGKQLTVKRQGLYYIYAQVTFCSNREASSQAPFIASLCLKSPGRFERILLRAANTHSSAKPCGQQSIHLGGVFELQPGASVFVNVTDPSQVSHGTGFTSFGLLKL
# methodSummary: ProteOn XPR36 biosensor, human MegaCD40L immobilized on GLC chip, purified Tn3 as analyte
# Experimental: Outputs were pool cloned into the soluble secretion vector as previously described, and five 96-well plates were screened for CD40L binding using the soluble protein screening assay described previously. Positive hits were identified relative to the signal obtained with the 311K4E backbone variant. […] PBS, 0.005% Tween20, 3 mM EDTA, pH7.4 was used as running buffer. Off-rates were ranked by visual inspection of the sensorgrams.

binder | unitSymbol | Kd
Clone 311K4E_11 - Clone Variant from second round of affinity maturation (designed binder, Secreted His8-tagged form) AIEVEDVTDTTALITWTNRSSYANLPGCELTYGIKDVPGDRTTIDLNSPYVHYSIGNLKPDTEYEVSLICLTTDGTYSNPAKETFTTGGGTLGHHHHHHHH | nM | 6.3
Clone 311K4E - Variant from first round of affinity maturation (designed binder, Secreted His8-tagged form) AIEVEDVTDTTALITWTNRSSYYNLHGCELTYGIKDVPGDRTTIDLSSPYVHYSIGNLKPDTEYEVSLICLTTDGTYSNPAKETFTTGGGTLGHHHHHHHH | nM | 18
Clone 311K4E_12 - Clone Variant from second round of affinity maturation (designed binder, Secreted His8-tagged form) AIEVEDVTDTTALITWTNRSSYSNLHGCELAYGIKDVPGDRTTIDLNQPYVHYSIGNLKPDTEYEVSLICLTTDGTYNNPAKETFTTGGGTLGHHHHHHHH | nM | 1.1
